assay: yeast display, Sf9 membrane polyspecificity reagent, FACS + sequencing; frameworks hold sequencing errors
metric.name: polyreactivity (PSR sort gate)

Please review the entries below; each comes with its answer.
Report polyreactivity (PSR sort gate) for QVQLVESGGGLVQAGASLRLSCAASGRIYIYAMGWYRQAPGKEREMVAAITGGASTNYADSVKGRFTISRDNAKNTVYLQLISLKPEDTAVYYCNAVAYVYGSFRRRPMGYWGQGTQVTVSS high polyreactivity

Name the recorded polyreactivity (PSR sort gate) of the sequence listed here: QVQLVESGGGLVQAGGSLRLSCAASGSIFDFYAMGWYRQAPGKERELVAAITWSGDTTYYADSVKGRFTISRDNAKNTVYLQMNSLKPEDTAVYYCAAEGWYWWYGRDYYWGQGTQVTVSS high polyreactivity

Tell me its polyreactivity (PSR sort gate) given PVQLVESGGGLVQAGGSLRLSCAACGSIIAGYAMGWYRQAPGKERELVAAISWSGGGTYYADSVKGRFTISRDNAKNTVYLQMNSLKPEDTAVYYCNAYGYRHRGNGYWGQGTQVTVSS as the entry. high polyreactivity

Identify measured polyreactivity (PSR sort gate) associated with QVQLVESGGGLVQAGGSLRLSCAAYGRTIPIYAMGWYRQAPGKEREFVAGINWSGGSTSYADSVKGRFTISRDNAKNTVYLQMNSLKPEDTAVYYCDADKYYRYNYWGQGTQVTVSS high polyreactivity

Look up and state reported polyreactivity (PSR sort gate) for QVQLVESGGGLVQAGGSLRLSCAASGRTFRYYAMGWYRQAPGKERELVADISWSGGRTSYADSVKGRFTISRDNAKNTVYLQMNSLKPEDTAVYYCAKVLYYPSHVYWGQGTQVTVSS high polyreactivity

Others:
Give the value of polyreactivity (PSR sort gate) reported for the following: QVQLVDSGGGLVQAGGSLRLSCAASGRTIHGYAMGWYRQAPGKERELVAAINWRGGSTYYADSVKGRFTISRDNAKNTVYLQMNSLKPEDTAVYYCNKRQYSARVSRSYDYWGQGTQVTVSS high polyreactivity

Check the records and state polyreactivity (PSR sort gate) for QVQLVESGGGLVQAGGSLRLSCAASGRTFRHYAMAWYRQAPGKERELVASIRWNGASTNYADSVKGRFTISRDNAKNTVYLQMNSLKPEDTAVYYCNARYLFYSGYVYWGQGTQVTVSS high polyreactivity

Give me measured polyreactivity (PSR sort gate), please, for this sequence: QVQLVESGGGLVQAGGSLRLSCAASGSIFTPNAMGWYRQAPGKERELVAAISQSGGSTYYADSVKGRFTISRDNAMNTVYLQMNSLKPEDTAVYYCGASVRHRGYDYWGQGTQVTVSS high polyreactivity

Tell me polyreactivity (PSR sort gate) reported for QVQLVESGGGLVQAGGSLRLSCAASGLTFRTYAMGWYRQAPGKERELVAAITWSGDSTYADSVKGRFTISRDNAKNTVYLQMNSLKPEDTAVYYCATKGYFSYHPYDYWGQGTQVTVSS low polyreactivity

Give reported polyreactivity (PSR sort gate) value for QVQLVESGGGLVQAGGSLRLSCAASGLIFIAYAMRWYRQAPGKERELVAAISSSGGSTYYADSVKGRFTISRDNAKNTVYLQMNSLKPEDTAVYYCAADRYAWGTGRYGYWGQGTQVTVSS low polyreactivity

Name the recorded polyreactivity (PSR sort gate) of the item QVQLVESGGGLVQAGGSLRLSCAASGRTFYGNVMGWYRQAPGKERELVAAISSRGSRTYYADSVKGRFTISRDNAKNTVYLQMNSLKPEETAVYYCNTYVRNHGLAGPDDYWGQGTLVTVSS in your answer. high polyreactivity

Entry source: the nanobody polyreactivity screen of Harvey et al. (2022)
